B1: ISL2 (parent)
chain: HYPFLGAMGDHSKKKPGTAMCVGC

# Variants of: B1
# Protocol: protein stability index of a GFP-peptide fusion (GPS, HEK-293T) (PSI 1-6); higher = more stable;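 further: lentivirally expressed fusions sorted by FACS into six bins by GFP to DsRed ratio, PSI derived from sequencing read proportions per bin multiplied by bin number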
# Run parameters: c terminus: a fixed tail appended
Parameter measured: protein stability index

[[record]]
mutation_spec = "Y2S"
observed_measurement = 3.33

[[record]]
mutation_spec = "C21K"
observed_measurement = 3.81

[[record]]
mutation_spec = "V22S"
observed_measurement = 3.6

[[record]]
mutation_spec = "C24S"
observed_measurement = 3.46

[[record]]
mutation_spec = "L5P"
observed_measurement = 3.13

[[record]]
mutation_spec = "P16A"
observed_measurement = 2.52

[[record]]
mutation_spec = "P3H"
observed_measurement = 2.31

[[record]]
mutation_spec = "T18V"
observed_measurement = 2.25

[[record]]
mutation_spec = "K15F"
observed_measurement = 2.07

[[record]]
mutation_spec = "G17W"
observed_measurement = 1.63

[[record]]
mutation_spec = "G23I"
observed_measurement = 2.16

[[record]]
mutation_spec = "Y2L"
observed_measurement = 3.37

[[record]]
mutation_spec = "A19F"
observed_measurement = 1.63

[[record]]
mutation_spec = "M8G"
observed_measurement = 3.85

